Biological target: T1, recombinant human TL1A (human, UniProt O95150 71-251)
T1 construct: Homotrimeric cytokine; biotinylated with Sulfo-NHS-biotin where captured for SPR, coated unlabelled in ELISA, soluble in bioassays; also called TNFSF15
T1 chain: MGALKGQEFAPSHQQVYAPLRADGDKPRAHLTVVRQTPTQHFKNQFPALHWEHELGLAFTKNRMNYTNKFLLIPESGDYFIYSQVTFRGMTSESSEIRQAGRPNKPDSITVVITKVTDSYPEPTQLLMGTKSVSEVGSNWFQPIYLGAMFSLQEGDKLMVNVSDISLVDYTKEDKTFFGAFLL
Assay: competition ELISA, coated TL1A, competitor bio-TL1A-0002
Quick list: IC50 per entry.
Parameter Measured: IC50 (nM)

# Binder, Value Measured
rows = [
    ("TL1A-0266 (antibody, human IgG1, kappa, V domains shown, human IgG1 effector-function-minimized/kappa) VH: QVQLVQSGAEVKKPGASVKVSCKASGYDYTYYGISWVRQAPGQGLEWMGWISTYNTNTHYAPSLQGRVTMTTDTSTSTAYMELRSLRSDDTAVYYCARESYYGSGAFRGGMDVWGQGTTVTVSS VL: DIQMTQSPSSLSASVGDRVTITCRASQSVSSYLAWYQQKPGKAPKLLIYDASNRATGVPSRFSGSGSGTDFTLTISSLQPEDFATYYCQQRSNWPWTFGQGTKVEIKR", 6.6),
    ("TL1A-0293 (antibody, human IgG1, kappa, V domains shown, human IgG1 effector-function-minimized/kappa) VH: QVQLVQSGAEVKKPGASVKVSCKASGYDFTYYGVSWVRQAPGQGLEWMGWISTYNTVTHYAPSLQGRVTMTTDTSTSTAYMELRSLRSDDTAVYYCARESYYGSGAHRGGMDVWGQGTTVTVSS VL: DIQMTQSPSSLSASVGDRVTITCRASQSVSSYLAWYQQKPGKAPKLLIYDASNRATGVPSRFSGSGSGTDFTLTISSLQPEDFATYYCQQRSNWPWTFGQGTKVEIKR", 9.7),
    ("TL1A-0294 (antibody, human IgG1, kappa, V domains shown, human IgG1 effector-function-minimized/kappa) VH: QVQLVQSGAEVKKPGASVKVSCKASGYDFTYYGVSWVRQAPGQGLEWMGWISTYNTNTHYAPSLQGRVTMTTDTSTSTAYMELRSLRSDDTAVYYCARESYYGSGAFRGGMDVWGQGTTVTVSS VL: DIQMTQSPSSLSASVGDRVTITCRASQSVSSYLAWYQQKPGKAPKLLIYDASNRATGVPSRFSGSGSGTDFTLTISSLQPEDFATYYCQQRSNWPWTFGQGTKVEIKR", 8),
    ("TL1A-0263 (antibody, human IgG1, kappa, V domains shown, human IgG1 effector-function-minimized/kappa) VH: QVQLVQSGAEVKKPGASVKVSCKASGYDYTYYGISWVRQAPGQGLEWMGWISTYNTGTHYAQKLQGRVTMTTDTSTSTAYMELRSLRSDDTAVYYCARESYYGSGAHRGGMDVWGQGTTVTVSS VL: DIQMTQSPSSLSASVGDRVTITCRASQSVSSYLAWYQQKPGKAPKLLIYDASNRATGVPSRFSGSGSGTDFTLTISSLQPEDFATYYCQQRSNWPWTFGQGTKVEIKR", 6.2),
    ("TL1A-0267 (antibody, human IgG1, kappa, V domains shown, human IgG1 effector-function-minimized/kappa) VH: QVQLVQSGAEVKKPGASVKVSCKASGYDYTYYGISWVRQAPGQGLEWMGWISTYNTNTHYAPSLQGRVTMTTDTSTSTAYMELRSLRSDDTAVYYCARESYYGSGAHRGGMDVWGQGTTVTVSS VL: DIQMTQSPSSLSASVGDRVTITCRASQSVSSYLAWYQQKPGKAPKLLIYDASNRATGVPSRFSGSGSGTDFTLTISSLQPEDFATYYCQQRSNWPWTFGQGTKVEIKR", 6.8),
    ("TL1A-0308 (antibody, human IgG1, kappa, V domains shown, human IgG1 effector-function-minimized/kappa) VH: QVQLVQSGAEVKKPGASVKVSCKASGYDFTYYGIGWVRQAPGQGLEWMGWISTYNTNTHYAPSLQGRVTMTTDTSTSTAYMELRSLRSDDTAVYYCARESYYGSGAFRGGMDVWGQGTTVTVSS VL: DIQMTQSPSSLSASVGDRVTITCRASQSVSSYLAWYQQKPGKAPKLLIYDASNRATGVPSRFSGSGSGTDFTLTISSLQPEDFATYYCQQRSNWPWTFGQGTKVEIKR", 14.2),
]
